TARGET OR SYSTEM: human Kv1.3 (Homo sapiens, UniProt P22001 1-575)
Sequence (P22001 whole entry): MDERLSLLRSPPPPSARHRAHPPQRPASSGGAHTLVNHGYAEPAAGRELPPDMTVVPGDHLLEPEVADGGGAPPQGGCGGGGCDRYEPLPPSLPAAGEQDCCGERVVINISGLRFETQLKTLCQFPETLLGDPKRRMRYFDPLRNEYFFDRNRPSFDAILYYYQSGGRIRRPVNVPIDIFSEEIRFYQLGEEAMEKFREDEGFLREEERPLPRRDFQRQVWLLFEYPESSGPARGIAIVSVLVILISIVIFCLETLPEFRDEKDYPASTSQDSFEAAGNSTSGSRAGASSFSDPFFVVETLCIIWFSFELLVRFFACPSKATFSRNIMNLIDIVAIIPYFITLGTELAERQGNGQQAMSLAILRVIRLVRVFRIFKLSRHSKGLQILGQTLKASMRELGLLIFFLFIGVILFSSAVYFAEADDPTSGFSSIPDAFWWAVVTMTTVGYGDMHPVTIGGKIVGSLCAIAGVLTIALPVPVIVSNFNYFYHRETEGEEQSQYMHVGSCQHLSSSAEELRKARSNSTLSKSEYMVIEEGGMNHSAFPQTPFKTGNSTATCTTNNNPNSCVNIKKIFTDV
TEST: cell-based or functional assay
ENDPOINT NAME: Average IC50, Kv1.3 current, IonWorks perforated patch clamp, CHL cells (nM)
Numbers only, in nM.

Entry under review: A019400009 (VHH) EVQLVESGGGLVQAGGSLGLSCSASGLLFSRNSAGWYRQAPGKQREFVARIRMGGSINYADTVKGRFTISRDNAKNTVYLQMNSLKPEDTAVYYCSSWRTGFYEYWGQGTLVTVSSGGGGSGGGGSGGGGSGGGGSGGGGSGGGGSGGGGSEVQLVESGGGLVQAGGSLGLSCSASGLLFSRNSAGWYRQAPGKQREFVARIRMGGSINYADTVKGRFTISRDNAKNTVYLQMNSLKPEDTAVYYCSSWRTGFYEYWGQGTLVTVSS . Reported Average IC50, Kv1.3 current, IonWorks perforated patch clamp, CHL cells? 0.81

Numbers sourced from patent US20170137512A1.
